biological target: UniProt:P17612; test: SDR assay, PKA-N-HiBiT; conditions: PKA-N-HiBiT qHTS, SDR assay; average maximal response
result-type: SDR Ave Max Response

Here are 5 compounds together with their reported answers.
{"columns": ["mol", "target-of-assay", "SDR Ave Max Response"],
 "data": [
  ["N[C@H]1CC[C@H](Nc2nc(Nc3ccc(C(=O)N4CCCCC4)cc3)c3ncn(-c4cccc(F)c4)c3n2)CC1", "UniProt:P17612", 23.75],
  ["COc1cc2c(N3CCN(C(=O)Nc4ccc(OC(C)C)cc4)CC3)ncnc2cc1OCCCN1CCCCC1", "UniProt:P17612", 7.68],
  ["O=C(O)[C@]1(Cc2cccc(Nc3nccs3)n2)CC[C@@H](Oc2cccc(Cl)c2F)CC1", "UniProt:P17612", 30.82],
  ["CCn1c(=O)c(-c2ccc(Cl)cc2Cl)cc2cnc(Nc3ccc(N4CCNCC4)c(F)c3)nc21", "UniProt:P17612", 15.09],
  ["CCN1C(=O)CNc2ncc(-c3ccc(-c4nc[nH]n4)nc3C)nc21", "UniProt:P17612", -2.34]
]}

[1] C=CC(=O)N1CCC(Oc2cc3c(Nc4ccc(Cl)c(Cl)c4F)ncnc3cc2OC)CC1
[2] COc1cc2ncnc(Oc3cccc(NC(=O)Nc4cc(C(C)(C)C(F)(F)F)on4)c3)c2cc1OC
query: // compare measured SDR Ave Max Response between 1 and 2 ; output the lower one When you have decided, please share the label of that item.
result: 2

[a] COc1cc2nccc(Oc3ccc(NC(=O)Nc4ccc(F)cc4F)c(F)c3)c2cc1OC
[b] C/N=c1\ncc2cc(-c3cc(NC(=O)NCCC(C)(C)C)c(F)cc3C)c(C)nc2[nH]1
query: // compare measured SDR Ave Max Response between a and b ; output the lower one When you have decided, please share the label of that item.
result: b

[a] CO[C@@H](C(=O)N1Cc2n[nH]c(NC(=O)c3ccc(N4CCN(C)CC4)cc3)c2C1)c1ccccc1
[b] COc1cc2ncnc(-n3nc(-c4ccccn4)nc3N)c2cc1OC
query: // compare measured SDR Ave Max Response between a and b ; output the lower one When you have decided, please share the label of that item.
result: a

[P] Cn1ncc(NC(=O)c2nc(-c3c(F)cccc3F)sc2N)c1N1CC[C@@H](N)[C@H](F)CC1
[Q] COc1cc(N2CCC(N3CCN(C)CC3)CC2)ccc1Nc1ncc(Cl)c(Nc2ccccc2P(C)(C)=O)n1
query: Returns: the argument ( P or Q ) having the larger SDR Ave Max Response. When you have decided, please share the label of that item.
result: Q

* * *

Listing of entries alongside the reported Max Resp.
target: P. pyralis FLuc (Photinus pyralis, UniProt P08659); test: FLuc enzymatic luminescence assay, P. pyralis FLuc; format: biochemical; conditions: Sample Data Type FLuc-Km
Sequence (P08659 whole entry): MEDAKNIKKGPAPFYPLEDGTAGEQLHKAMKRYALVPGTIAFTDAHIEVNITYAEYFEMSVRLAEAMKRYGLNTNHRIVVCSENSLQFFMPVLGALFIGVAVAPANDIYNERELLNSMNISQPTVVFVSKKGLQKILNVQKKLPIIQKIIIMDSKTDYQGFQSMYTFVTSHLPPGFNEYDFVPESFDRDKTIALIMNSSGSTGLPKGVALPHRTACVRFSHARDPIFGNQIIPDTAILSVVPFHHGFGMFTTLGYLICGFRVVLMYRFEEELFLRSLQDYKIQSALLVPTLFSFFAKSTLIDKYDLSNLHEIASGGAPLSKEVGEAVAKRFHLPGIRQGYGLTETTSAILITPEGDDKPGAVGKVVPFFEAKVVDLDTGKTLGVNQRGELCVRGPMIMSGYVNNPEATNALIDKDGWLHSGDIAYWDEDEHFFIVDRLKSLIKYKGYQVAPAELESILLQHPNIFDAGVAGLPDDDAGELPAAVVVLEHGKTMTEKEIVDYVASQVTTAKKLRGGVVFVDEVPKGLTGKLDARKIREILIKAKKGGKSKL
Answer with the value's number alone.

Here are 3 molecules together with their reported answers.
{"columns": ["molecule", "Max Resp"],
 "data": [
  ["CC(C)CCNC(=O)C1CCN(C(=O)c2ncn3c2COC(c2ccc(F)cc2)C3)CC1 (stereo not shown) [NCGC00423180-01]", -18.73],
  ["CC(C)NC(=O)C1CCN(C(=O)c2ncn3c2COC(c2ccccc2)C3)CC1 (stereo not shown) [NCGC00449767-01]", -86.46],
  ["Cc1ccc(C2Cn3cnc(C(=O)N4CCC(C(=O)NCCC(C)C)CC4)c3CO2)cc1 (stereo not shown) [NCGC00422121-01]", -21.63]
]}

query: Look up Max Resp for this molecule: CCC(CC)NC(=O)C1CCN(C(=O)c2ncn3c2COC(c2ccc(F)cc2)C3)CC1 (stereo not shown) [NCGC00430454-01]
result: -6.95
